Test system: MOLT-4 leukemia
experiment: NCI-60 one-dose screen, 48 h
reported.conditions: 10 µM unless noted
This is part of a sample that, as a whole, favours compounds with a hit. Of some 83,000 tested, about 20% had one in any assay. Active and inactive are the calls of the source. Rule for the calls: active = growth percent below 10; inactive = the rest.
I would appreciate it if you answered using one of these outcomes: active, inactive

Known results for compounds:
# test.smiles, target, class.name
data = [
    ("CCCCCCCC/C=C/CCCCCCCC1=NCC[N+]1(CCO)CCO", "MOLT-4 leukemia", "inactive"),
    ("N=C(N)c1ccc(-c2ccc(/C=C/c3ccccc3)s2)cc1", "MOLT-4 leukemia", "active"),
    ("COc1cc(C(=O)Nc2cc(O)c(CC=C(C)C)c(O)c2)cc2c1O[C@]1(C)CC[C@@H](O)C(C)(C)[C@H]1C2", "MOLT-4 leukemia", "active"),
    ("CN(C)CCn1cc(-c2ccc3c(Nc4ccc(CC(=O)Nc5cccc(F)c5)cc4)ncnc3c2)cn1", "MOLT-4 leukemia", "active"),
]

Okay, next one:
Query: Called result for `CCc1nc2ccccc2[nH]1`
Reply: inactive
